Each recorded value in this set is attributed to patent US9115137B2.

target: human recombinant serotonin (5-Hydroxytryptamine) 5-HT2C receptor (Homo sapiens); construct: expressed in transfected cells; host or cells: CHO-K1 cells; experiment: Serotonin 5-HT2C radioligand binding ([3H]Mesulergine); details: compound at 1 μM; CHO-K1 cells; read-out: Serotonin (1 μM) 5-HT2C, percent inhibition of specific binding
Sequence (P28335 33-458): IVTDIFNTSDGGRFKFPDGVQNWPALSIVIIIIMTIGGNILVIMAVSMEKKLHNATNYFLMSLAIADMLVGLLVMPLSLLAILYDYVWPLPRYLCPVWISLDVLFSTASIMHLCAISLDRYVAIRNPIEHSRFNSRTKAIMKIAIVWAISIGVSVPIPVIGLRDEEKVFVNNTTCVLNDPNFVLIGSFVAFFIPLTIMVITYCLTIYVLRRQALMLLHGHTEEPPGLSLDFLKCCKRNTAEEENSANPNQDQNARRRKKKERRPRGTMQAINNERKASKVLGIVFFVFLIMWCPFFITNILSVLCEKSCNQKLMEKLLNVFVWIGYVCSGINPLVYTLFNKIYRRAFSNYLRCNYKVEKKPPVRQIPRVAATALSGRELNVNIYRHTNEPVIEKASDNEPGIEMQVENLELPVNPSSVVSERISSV
PROPERTY: inhibition at 1 µM (%)
Response body: numeric value in %, unit text excluded.

The following compounds have reported results that may help.
{"SMI": "Cc1ccc2c(c1)c1c(n2CCNC(=O)c2ccc(F)cc2Cl)CCN(C)C1", "inhibition at 1 µM / %": 72}
{"SMI": "CN1CCc2c(c3cc(Cl)ccc3n2CCC#N)C1", "inhibition at 1 µM / %": 71}
{"SMI": "Cc1ccc2c(c1)c1c(n2CC(=O)Nc2ccc(F)cc2)CCN(C)C1", "inhibition at 1 µM / %": 70}
{"SMI": "CC(C)OC(=O)Cn1c2c(c3cc(Cl)ccc31)CN(C)CC2", "inhibition at 1 µM / %": 71}

From here, focus on the item given below.
Just so you know, measured inhibition at 1 µM for Cc1ccc2c(c1)c1c(n2CCC(=O)NCc2ccccc2)CCN(C)C1 came out at 72

---

// reported inhibition at 1 µM per item
target: human recombinant serotonin (5-Hydroxytryptamine) 5-HT2A receptor (Homo sapiens, UniProt P28223); construct: expressed in transfected cells; host or cells: CHO-K1 cells; experiment: Serotonin 5-HT2A radioligand binding ([3H]Ketanserin); conditions: compound at 1 μM; CHO-K1 cells; read-out: Serotonin (1 μM) 5-HT2A, percent inhibition of specific binding
Sequence (P28223 whole entry): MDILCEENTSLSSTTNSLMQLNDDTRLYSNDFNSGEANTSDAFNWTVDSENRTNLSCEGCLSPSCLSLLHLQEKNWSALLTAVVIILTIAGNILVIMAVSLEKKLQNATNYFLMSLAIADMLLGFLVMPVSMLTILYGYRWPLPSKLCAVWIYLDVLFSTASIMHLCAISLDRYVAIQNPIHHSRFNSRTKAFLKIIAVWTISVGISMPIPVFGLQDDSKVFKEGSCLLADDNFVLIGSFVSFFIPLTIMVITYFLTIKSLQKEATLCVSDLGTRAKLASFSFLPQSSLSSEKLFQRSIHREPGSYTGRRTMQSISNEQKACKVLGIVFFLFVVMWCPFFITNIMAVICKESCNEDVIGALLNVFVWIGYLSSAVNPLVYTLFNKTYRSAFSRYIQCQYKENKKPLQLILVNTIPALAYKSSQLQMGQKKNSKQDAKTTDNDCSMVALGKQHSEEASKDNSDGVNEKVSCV
Response body: numeric value in %, unit text excluded.

The following compounds have reported results that may help.
{"SMI": "Cc1ccc2c(c1)c1c(n2CCC(=O)NC(C)C)CCN(C)C1", "PROPERTY": "inhibition at 1 µM", "QUANTITY_UNIT": "%", "MEASURED_RESULT": 39}
{"SMI": "CCNC(=O)CCCn1c2c(c3cc(C)ccc31)CN(C)CC2", "PROPERTY": "inhibition at 1 µM", "QUANTITY_UNIT": "%", "MEASURED_RESULT": 30}

Just so you know, measured inhibition at 1 µM for Cc1ccc2c(c1)c1c(n2CCC#N)CCN(C)C1 came out at 67

Just so you know, measured inhibition at 1 µM for Cc1ccc2c(c1)c1c(n2CCC(=O)NC(C)(C)C)CCN(C)C1 came out at 17

Just so you know, measured inhibition at 1 µM for Cc1ccc2c(c1)c1c(n2CCNC(=O)C2CCCC2)CCN(C)C1 came out at 77

---

molecular target: rat adrenergic α1A receptor (Rattus norvegicus, UniProt P43140); construct: obtained from Wistar Rat submaxillary glands; from tissue; host or cells: Wistar rat submaxillary glands; assay: Adrenergic α1A radioligand binding ([3H]Prozosin); details: compound at 1 μM; Wistar Rat submaxillary glands; read-out: Adrenergic (1 μM) α1A, percent inhibition of specific binding
Sequence (P43140 whole entry): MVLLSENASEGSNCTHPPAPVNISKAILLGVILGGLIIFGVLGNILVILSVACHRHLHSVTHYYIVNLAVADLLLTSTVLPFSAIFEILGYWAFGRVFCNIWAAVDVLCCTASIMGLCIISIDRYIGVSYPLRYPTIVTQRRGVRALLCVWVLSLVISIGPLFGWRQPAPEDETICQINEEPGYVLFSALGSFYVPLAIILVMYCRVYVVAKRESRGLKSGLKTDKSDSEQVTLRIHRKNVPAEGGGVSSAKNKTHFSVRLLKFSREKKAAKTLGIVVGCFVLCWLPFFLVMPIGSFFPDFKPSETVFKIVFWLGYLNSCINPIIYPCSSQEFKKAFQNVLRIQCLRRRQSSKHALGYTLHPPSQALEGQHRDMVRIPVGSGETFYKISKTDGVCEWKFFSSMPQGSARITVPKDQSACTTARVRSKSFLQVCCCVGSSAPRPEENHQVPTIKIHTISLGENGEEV
// reported inhibition at 1 µM per item
Response body: numeric value in %, unit text excluded.

The following compounds have reported results that may help.
{"COMPOUND": "C#CCn1c2c(c3cc(C)ccc31)CN(C)CC2", "PROPERTY": "inhibition at 1 µM", "QUANTITY_UNIT": "%", "MEASURED_RESULT": 65}
{"COMPOUND": "Cc1ccc2c(c1)c1c(n2CCC(=O)NC2CCCC2)CCN(C)C1", "PROPERTY": "inhibition at 1 µM", "QUANTITY_UNIT": "%", "MEASURED_RESULT": 35}
{"COMPOUND": "Cc1ccc2c(c1)c1c(n2CCNC(=O)C2CCCNC2)CCN(C)C1 (stereo not drawn)", "PROPERTY": "inhibition at 1 µM", "QUANTITY_UNIT": "%", "MEASURED_RESULT": 5}
{"COMPOUND": "Cc1ccc2c(c1)c1c(n2CCC(=O)NC2CCCCC2)CCN(C)C1", "PROPERTY": "inhibition at 1 µM", "QUANTITY_UNIT": "%", "MEASURED_RESULT": 8}
{"COMPOUND": "CCNC(=O)CCn1c2c(c3cc(C)ccc31)CN(C)CC2", "PROPERTY": "inhibition at 1 µM", "QUANTITY_UNIT": "%", "MEASURED_RESULT": 10}

Just so you know, measured inhibition at 1 µM for Cc1ccc2c(c1)c1c(n2CC#N)CCN(C)C1 came out at 82

Just so you know, measured inhibition at 1 µM for Cc1ccc2c(c1)c1c(n2CCNC(=O)OCC(Cl)(Cl)Cl)CCN(C)C1 came out at 82

Just so you know, measured inhibition at 1 µM for CNC(=O)CCn1c2c(c3cc(C)ccc31)CN(C)CC2 came out at 5

Just so you know, measured inhibition at 1 µM for CCNC(=O)CCCn1c2c(c3cc(C)ccc31)CN(C)CC2 came out at 18

---

// reported inhibition at 1 µM per item
Target: human recombinant adrenergic α2B receptor (Homo sapiens, UniProt P18089)
Construct: expressed in transfected cells; host or cells: CHO-K1 cells
Sequence (P18089 1-450): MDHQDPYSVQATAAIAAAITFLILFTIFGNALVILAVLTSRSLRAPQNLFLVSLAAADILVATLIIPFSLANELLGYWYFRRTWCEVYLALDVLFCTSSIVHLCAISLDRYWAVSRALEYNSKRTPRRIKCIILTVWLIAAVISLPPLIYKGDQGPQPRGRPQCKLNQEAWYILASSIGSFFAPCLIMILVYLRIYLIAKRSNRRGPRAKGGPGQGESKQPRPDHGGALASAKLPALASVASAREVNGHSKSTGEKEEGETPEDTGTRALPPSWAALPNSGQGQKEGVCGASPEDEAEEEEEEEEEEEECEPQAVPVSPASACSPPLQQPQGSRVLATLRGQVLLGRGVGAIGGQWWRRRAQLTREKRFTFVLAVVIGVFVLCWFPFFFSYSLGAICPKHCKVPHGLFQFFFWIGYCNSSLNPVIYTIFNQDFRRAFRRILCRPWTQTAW
Experiment: Adrenergic α2B radioligand binding ([3H]Rauwolscine)
Details: compound at 1 μM; CHO-K1 cells; read-out: Adrenergic (1 μM) α2B, percent inhibition of specific binding
Please report the result as a number followed by the unit.

The following compounds have reported results that may help.
{"COMPOUND": "CN1CCc2c(c3cc(Cl)ccc3n2CCC(=O)NC2CCCC2)C1 [Compound 31]", "inhibition at 1 µM": "91%"}
{"COMPOUND": "Cc1ccc2c(c1)c1c(n2CCNC(=O)C2CCCCC2)CCN(C)C1 [Compound 62]", "inhibition at 1 µM": "92%"}
{"COMPOUND": "Cc1ccc2c(c1)c1c(n2CC#N)CCN(C)C1 [CD61]", "inhibition at 1 µM": "89%"}

From here, focus on the item given below.
Value (inhibition at 1 µM, human recombinant adrenergic α2B receptor (Homo sapiens, UniProt P18089)) for record CCCCOC(=O)Cn1c2c(c3cc(Cl)ccc31)CN(C)CC2 [Compound 52] = 89%

---

// reported inhibition at 1 µM per item
biological target: human recombinant serotonin (5-Hydroxytryptamine) 5-HT6 receptor (Homo sapiens, UniProt P50406); construct: expressed in transfected cells; host or cells: human HeLa cells; assay: Serotonin 5-HT6 radioligand binding ([3H]LSD); conditions: compound at 1 μM; HeLa cells; read-out: Serotonin (1 μM) 5-HT6, percent inhibition of specific binding
Sequence (P50406 whole entry): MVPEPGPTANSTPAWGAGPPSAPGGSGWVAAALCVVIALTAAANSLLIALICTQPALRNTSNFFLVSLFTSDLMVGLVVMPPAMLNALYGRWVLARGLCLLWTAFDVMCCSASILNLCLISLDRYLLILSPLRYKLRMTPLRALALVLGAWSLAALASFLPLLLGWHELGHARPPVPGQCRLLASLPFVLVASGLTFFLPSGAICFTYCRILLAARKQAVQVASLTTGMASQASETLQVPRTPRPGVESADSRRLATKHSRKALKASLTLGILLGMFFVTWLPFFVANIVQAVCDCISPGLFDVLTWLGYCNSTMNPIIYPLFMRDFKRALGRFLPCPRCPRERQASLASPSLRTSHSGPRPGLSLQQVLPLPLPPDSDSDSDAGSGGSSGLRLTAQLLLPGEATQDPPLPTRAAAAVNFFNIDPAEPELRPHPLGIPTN
Response body: numeric value in %, unit text excluded.

The following compounds have reported results that may help.
{"SMI": "Cc1ccc2c(c1)c1c(n2CCNC(=O)C(C)C)CCN(C)C1", "inhibition at 1 µM / %": 10}
{"SMI": "CN1CCc2c(c3cc(Cl)ccc3n2CC(=O)N(C)C)C1", "inhibition at 1 µM / %": 12}
{"SMI": "Cc1ccc2c(c1)c1c(n2CCC(=O)Nc2ccccc2)CCN(C)C1", "inhibition at 1 µM / %": 43}

Just so you know, measured inhibition at 1 µM for Cc1ccc2c(c1)c1c(n2CCO)CCN(C)C1 came out at 7

---

biological target: human recombinant histamine H1 receptor (Homo sapiens); construct: expressed in transfected cells; host or cells: CHO cells; experiment: Histamine H1 radioligand binding ([3H]Pyrilamine); conditions: compound at 1 μM; CHO cells; read-out: Histamine Binding (1 μM) H1, percent inhibition of specific binding
Sequence (P35367 whole entry): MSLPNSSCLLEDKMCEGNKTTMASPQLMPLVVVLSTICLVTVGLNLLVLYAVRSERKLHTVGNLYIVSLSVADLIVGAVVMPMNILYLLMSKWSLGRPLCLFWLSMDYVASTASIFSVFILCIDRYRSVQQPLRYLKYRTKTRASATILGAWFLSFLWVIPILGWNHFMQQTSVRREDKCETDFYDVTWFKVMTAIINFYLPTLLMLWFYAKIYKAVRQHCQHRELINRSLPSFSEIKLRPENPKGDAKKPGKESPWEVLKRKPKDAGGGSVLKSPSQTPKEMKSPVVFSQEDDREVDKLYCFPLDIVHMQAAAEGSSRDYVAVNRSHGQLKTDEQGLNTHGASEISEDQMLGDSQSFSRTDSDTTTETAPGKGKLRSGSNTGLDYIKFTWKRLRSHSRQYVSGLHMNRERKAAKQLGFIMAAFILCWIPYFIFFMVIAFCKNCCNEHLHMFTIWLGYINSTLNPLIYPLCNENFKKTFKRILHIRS
// reported inhibition at 1 µM per item
Response body: numeric value in %, unit text excluded.

The following compounds have reported results that may help.
{"COMPOUND": "Cc1ccc2c(c1)c1c(n2CCC(=O)NC2CCCC2)CCN(C)C1 [Compound 4]", "MEASURED_RESULT": 60}
{"COMPOUND": "CN1CCc2c(c3cc(Cl)ccc3n2CC(=O)OC2CCCC2)C1 [Compound 15]", "MEASURED_RESULT": 99}
{"COMPOUND": "CCOC(=O)Cn1c2c(c3cc(C)ccc31)CN(C)CC2 [CD57]", "MEASURED_RESULT": 100}
{"COMPOUND": "CN1CCc2c(c3cc(Cl)ccc3n2CCC(=O)OC2CCCC2)C1 [Compound 21]", "MEASURED_RESULT": 98}
{"COMPOUND": "CCNC(=O)Cn1c2c(c3cc(C)ccc31)CN(C)CC2 [Compound 22]", "MEASURED_RESULT": 85}

Just so you know, measured inhibition at 1 µM for CN1CCc2c(c3cc(Cl)ccc3n2CC(N)=O)C1 [Compound 45] came out at 82

Just so you know, measured inhibition at 1 µM for CCNC(=O)CCn1c2c(c3cc(C)ccc31)CN(C)CC2 [Compound 2] came out at 52

Just so you know, measured inhibition at 1 µM for Cc1ccc2c(c1)c1c(n2CC(N)=O)CCN(C)C1 [Compound 64] came out at 62
